test system: SNB-19; assay: NCI tumour cell line growth inhibition, 48 h
Active and inactive are the calls of the source. Rule as the data show it: active = GI50 up to about 1.1 µM and inactive = higher.
Classes used: active, inactive

- COMPOUND: "Oc1ccc2ccccc2c1/N=N\\c1cccc2ccccc12"
  SYSTEM TESTED: "SNB-19"
  GROUP LABEL: "inactive"
- COMPOUND: "Oc1ccc2c(c1)CC[N+]1=C2CCC2CCCC21 (stereo not given) [QUINDONIUM BROMIDE]"
  SYSTEM TESTED: "SNB-19"
  GROUP LABEL: "inactive"
- COMPOUND: "CC(C)(C)[Si](C)(C)OCC1OC(n2ccc(N)nc2=O)C(O[Si](C)(C)C(C)(C)C)C1O[Si](C)(C)C(C)(C)C (stereo not given)"
  SYSTEM TESTED: "SNB-19"
  GROUP LABEL: "inactive"
- COMPOUND: "COCC1N=C(c2cc(OC)c(OC)c(OC)c2-c2cc3c(cc2C2OCCCO2)OCO3)O[C@H]1c1ccccc1 (stereo not given in full)"
  SYSTEM TESTED: "SNB-19"
  GROUP LABEL: "inactive"
- COMPOUND: "CC(=O)OCC1OC(OC2CC3C(C)(C)C(OC(C)=O)CC[C@]3(C)C3CCC45CC4(CC[C@H]5C(C)CC(O)C4OC4(C)C)[C@]23C)C(O)C(O)C1O (stereo not given in full)"
  SYSTEM TESTED: "SNB-19"
  GROUP LABEL: "inactive"
- COMPOUND: "CCCCCCCCCCCCC(SCCNC(=O)CCNC(=O)C(O)C(C)(C)COP(=O)(O)OP(=O)(O)OCC1OC(n2cnc3c(N)ncnc32)C(O)C1OP(=O)(O)O)C(=O)NCC(N)=O (stereo not given)"
  SYSTEM TESTED: "SNB-19"
  GROUP LABEL: "inactive"
- COMPOUND: "O=C(c1ccccc1Br)C(F)(F)F"
  SYSTEM TESTED: "SNB-19"
  GROUP LABEL: "inactive"
- COMPOUND: "COc1ccc2c(=O)c(-c3cc(OC)c(OC)cc3OC)coc2c1"
  SYSTEM TESTED: "SNB-19"
  GROUP LABEL: "inactive"
- COMPOUND: "C[N+](C)([O-])CCOc1cc2c(c3ccccc13)-c1ccccc1C2=O"
  SYSTEM TESTED: "SNB-19"
  GROUP LABEL: "inactive"
- COMPOUND: "Cc1ccc(Nc2nc3ccccc3nc2NS(=O)(=O)c2ccc(N)cc2)cc1"
  SYSTEM TESTED: "SNB-19"
  GROUP LABEL: "inactive"
- COMPOUND: "COc1cc2c3c(n(C)c(=O)c2cc1OC)-c1cc2c(cc1C3=O)OCO2"
  SYSTEM TESTED: "SNB-19"
  GROUP LABEL: "inactive"
- COMPOUND: "COc1ccc(Cc2nc3cc(C(F)(F)F)ccc3n2C[C@@H]2CCCN3CCCCC23)cc1 (stereo not given in full)"
  SYSTEM TESTED: "SNB-19"
  GROUP LABEL: "inactive"
- COMPOUND: "CCOC(=O)C(O)(NC(=O)NC(O)(C(=O)OCC)C(F)(F)F)C(F)(F)F (stereo not given)"
  SYSTEM TESTED: "SNB-19"
  GROUP LABEL: "inactive"
- COMPOUND: "Cc1cc(C)n(C(=C(C(Cl)=C(Cl)Cl)[N+](=O)[O-])n2nc(C)cc2C)n1"
  SYSTEM TESTED: "SNB-19"
  GROUP LABEL: "inactive"
- COMPOUND: "C[C@H](CS)C(=O)N1c2ccccc2C[C@H]1C(=O)O"
  SYSTEM TESTED: "SNB-19"
  GROUP LABEL: "inactive"
- COMPOUND: "O=C(/C=C/c1cccc(Br)c1)c1cccs1"
  SYSTEM TESTED: "SNB-19"
  GROUP LABEL: "inactive"
- COMPOUND: "Cc1cc(C)c2c(c1)C/C(=C\\c1cccc(C)c1C(=O)O)C2=O"
  SYSTEM TESTED: "SNB-19"
  GROUP LABEL: "inactive"
- COMPOUND: "CN(CCCN(C)CCc1ccc(Cl)c(Cl)c1)CCCN1CCCC1"
  SYSTEM TESTED: "SNB-19"
  GROUP LABEL: "inactive"
- COMPOUND: "Cc1ccc2[nH]c3c(c(=O)n(C)c(=O)n3C)c2c1"
  SYSTEM TESTED: "SNB-19"
  GROUP LABEL: "inactive"
- COMPOUND: "c1ccc(CSC2(SCc3ccccc3)CCCC2)cc1"
  SYSTEM TESTED: "SNB-19"
  GROUP LABEL: "inactive"
- COMPOUND: "O=C(NC1CCCCC1)NS(=O)(=O)c1ccc2c(c1)CCC2 [GLYHEXAMIDE]"
  SYSTEM TESTED: "SNB-19"
  GROUP LABEL: "inactive"
- COMPOUND: "O=C1C(O)=C(C(C2=C(O)C(=O)c3ccccc3C2=O)c2ccc(Cl)cc2)C(=O)c2ccccc21"
  SYSTEM TESTED: "SNB-19"
  GROUP LABEL: "inactive"
- COMPOUND: "CSc1ccc2c(c1)C(N1CCN(C)CC1)Cc1ccccc1S2 (stereo not given)"
  SYSTEM TESTED: "SNB-19"
  GROUP LABEL: "inactive"
- COMPOUND: "CCOC(=O)C(=O)Nc1c(F)cc(F)cc1Br"
  SYSTEM TESTED: "SNB-19"
  GROUP LABEL: "inactive"
- COMPOUND: "CCOC(=O)c1sc2nc(SC)nc3c2c1NCN3c1ccc2c(c1)OCCCO2"
  SYSTEM TESTED: "SNB-19"
  GROUP LABEL: "inactive"
- COMPOUND: "CCSc1nn(-c2c3ccccc3nc3ccccc23)c(=S)s1"
  SYSTEM TESTED: "SNB-19"
  GROUP LABEL: "inactive"
- COMPOUND: "COc1ccc(N2C(=O)C3c4[nH]c5ccc(C)cc5c4C4CCC(c5ccccc5)CC4C3C2=O)cc1 (stereo not given)"
  SYSTEM TESTED: "SNB-19"
  GROUP LABEL: "inactive"
- COMPOUND: "COc1cc(O)c(C(=O)/C=C/c2ccc(O)cc2)cc1Oc1ccc(/C=C/C(=O)c2ccc(O)cc2O)cc1"
  SYSTEM TESTED: "SNB-19"
  GROUP LABEL: "inactive"
- COMPOUND: "COc1ccccc1NC(=O)C(CC(C(=O)Nc1ccccc1OC)/C(C)=N/NC(=O)c1ccccc1O)/C(C)=N/NC(=O)c1ccccc1O (stereo not given)"
  SYSTEM TESTED: "SNB-19"
  GROUP LABEL: "inactive"
- COMPOUND: "COc1c2c(c(CC=C(C)C)c3oc(=O)c(-c4ccc(O)cc4)c(O)c13)OC(C)(C)C=C2"
  SYSTEM TESTED: "SNB-19"
  GROUP LABEL: "inactive"
- COMPOUND: "COC(=O)c1cn(CC(O)CCl)nn1 (stereo not given)"
  SYSTEM TESTED: "SNB-19"
  GROUP LABEL: "inactive"
- COMPOUND: "O=c1[nH]c(=O)n(Cc2ccccc2CO)cc1Sc1ccccc1"
  SYSTEM TESTED: "SNB-19"
  GROUP LABEL: "inactive"
- COMPOUND: "ClCC1(CCl)COC1"
  SYSTEM TESTED: "SNB-19"
  GROUP LABEL: "inactive"
- COMPOUND: "COc1cc2cc(C(=O)N3C[C@H](CCl)c4c3cc(O)c3ccccc43)[nH]c2c(OC)c1OC"
  SYSTEM TESTED: "SNB-19"
  GROUP LABEL: "active"
- COMPOUND: "C=C1C(=O)OC2(C)C3CCC(C3)C12 (stereo not given)"
  SYSTEM TESTED: "SNB-19"
  GROUP LABEL: "inactive"
- COMPOUND: "CCCCCCCCCCCCCCCCCCNc1ccn(C2OC(CO)C(OP(=O)(O)OCC3CCC(n4ccc(N)nc4=O)O3)C2O)c(=O)n1 (stereo not given)"
  SYSTEM TESTED: "SNB-19"
  GROUP LABEL: "inactive"
- COMPOUND: "COc1nc(SC)nc2c1cnn2C1OC(C(O)CO)C(OC)C1O (stereo not given)"
  SYSTEM TESTED: "SNB-19"
  GROUP LABEL: "inactive"
- COMPOUND: "CC1CCCC(C(=O)CC2CC(=O)NC(=O)C2)C1=O (stereo not given)"
  SYSTEM TESTED: "SNB-19"
  GROUP LABEL: "inactive"
- COMPOUND: "C[C@@H](c1ccccc1)N1CN(C(=O)OCc2ccccc2)C(C)(C)CC1=O"
  SYSTEM TESTED: "SNB-19"
  GROUP LABEL: "inactive"
- COMPOUND: "CCOC(=O)CC1(N)CC2c3ccccc3OC(=O)C2C(=O)N1 (stereo not given)"
  SYSTEM TESTED: "SNB-19"
  GROUP LABEL: "inactive"
